Measured IC50 by item
tested_system: BRG-1 (Homo sapiens)
Sequence (P51532 whole entry): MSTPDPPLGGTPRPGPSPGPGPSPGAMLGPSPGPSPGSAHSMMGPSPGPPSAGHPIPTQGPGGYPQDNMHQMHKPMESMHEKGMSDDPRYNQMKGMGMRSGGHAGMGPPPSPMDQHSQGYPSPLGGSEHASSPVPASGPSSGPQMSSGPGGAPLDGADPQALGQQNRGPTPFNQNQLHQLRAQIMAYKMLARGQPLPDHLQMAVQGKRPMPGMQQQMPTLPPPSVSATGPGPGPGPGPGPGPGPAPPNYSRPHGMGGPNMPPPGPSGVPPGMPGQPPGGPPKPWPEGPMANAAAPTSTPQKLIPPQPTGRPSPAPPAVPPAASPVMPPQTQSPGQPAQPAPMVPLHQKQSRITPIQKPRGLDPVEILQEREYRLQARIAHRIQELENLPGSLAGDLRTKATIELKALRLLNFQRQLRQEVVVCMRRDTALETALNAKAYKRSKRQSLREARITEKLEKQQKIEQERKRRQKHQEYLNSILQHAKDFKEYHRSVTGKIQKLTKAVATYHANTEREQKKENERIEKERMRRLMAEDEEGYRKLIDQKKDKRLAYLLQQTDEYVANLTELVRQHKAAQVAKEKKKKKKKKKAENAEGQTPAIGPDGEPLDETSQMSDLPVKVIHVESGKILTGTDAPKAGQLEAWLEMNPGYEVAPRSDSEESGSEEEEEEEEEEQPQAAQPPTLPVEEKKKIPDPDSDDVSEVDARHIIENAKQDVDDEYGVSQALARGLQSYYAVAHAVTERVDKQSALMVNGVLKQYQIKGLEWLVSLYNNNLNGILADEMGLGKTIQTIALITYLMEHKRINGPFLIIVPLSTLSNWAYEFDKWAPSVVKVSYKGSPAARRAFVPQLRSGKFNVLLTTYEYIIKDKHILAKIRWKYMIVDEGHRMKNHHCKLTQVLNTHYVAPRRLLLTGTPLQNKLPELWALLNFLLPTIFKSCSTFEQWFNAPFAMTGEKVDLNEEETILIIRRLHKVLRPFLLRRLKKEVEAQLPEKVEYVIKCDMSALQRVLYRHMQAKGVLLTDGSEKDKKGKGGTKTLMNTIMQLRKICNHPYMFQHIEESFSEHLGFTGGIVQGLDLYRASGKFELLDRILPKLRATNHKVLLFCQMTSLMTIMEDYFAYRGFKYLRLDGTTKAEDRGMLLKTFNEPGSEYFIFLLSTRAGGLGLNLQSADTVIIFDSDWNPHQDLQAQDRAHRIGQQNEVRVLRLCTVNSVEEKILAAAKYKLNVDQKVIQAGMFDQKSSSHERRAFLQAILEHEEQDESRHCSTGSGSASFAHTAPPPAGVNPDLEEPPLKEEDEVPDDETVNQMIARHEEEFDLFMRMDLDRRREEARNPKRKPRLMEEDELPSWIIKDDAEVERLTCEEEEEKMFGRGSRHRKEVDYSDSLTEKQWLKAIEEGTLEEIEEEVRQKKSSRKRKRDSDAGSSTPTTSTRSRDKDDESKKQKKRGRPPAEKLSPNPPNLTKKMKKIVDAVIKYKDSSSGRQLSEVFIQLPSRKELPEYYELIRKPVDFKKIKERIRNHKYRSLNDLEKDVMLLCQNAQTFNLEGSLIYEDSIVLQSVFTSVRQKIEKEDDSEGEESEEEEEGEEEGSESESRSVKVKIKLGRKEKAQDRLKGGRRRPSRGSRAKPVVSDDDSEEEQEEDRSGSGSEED
test_name: ATPase catalytic activity assay (ADP-Glo), BRG-1

[[record]]
compound = "C[C@@]1(C#N)COCc2ccc(C(=O)NCc3cc4nc(-c5ccnc(N6CCC6)c5F)ccc4cn3)cc21 [Compound 412]"
result = "100 to 500 nM"


IC50 for C[C@@]1(C#N)COCc2ccc(C(=O)NCc3cc4nc(-c5cncc(C(F)F)n5)ccc4cn3)cc21 [Compound 355] is 500 to 1000 nM

IC50 for C[C@@]1(C#N)COCc2ccc(C(=O)NCc3cc4cc(-c5nccc(N6CCC6)n5)ccc4cn3)cc21 [Compound 365] is 100 to 500 nM

IC50 for C[C@@]1(F)COCc2ccc(C(=O)NCc3cc4nc(-c5cncc(C6CC6)n5)ccc4cn3)cc21 [Compound 325] is 100 to 500 nM

IC50 for Cc1cnn(-c2ccc3cnc(CNC(=O)c4ccc5c(c4)[C@](C)(C#N)COC5)cc3n2)c1 [Compound 505] is 500 to 1000 nM

IC50 for C[C@@]1(C#N)COCc2ccc(C(=O)NCc3cc4nc(-c5cc(F)c(=O)n(C(F)F)c5)ccc4cn3)cc21 [Compound 449] is > 1000 nM

IC50 for C[C@@]1(C#N)COCc2ccc(C(=O)NCc3cc4nc(-c5ccnc(N6C[C@@H]7C[C@H]6CO7)n5)ccc4cn3)cc21 [Compound 340] is 100 to 500 nM

IC50 for C[C@@]1(C#N)COCc2ccc(C(=O)NCc3cc4nc(-c5ccnc(N6C[C@H]7C[C@@H]6CO7)n5)ccc4cn3)cc21 [Compound 310] is 100 to 500 nM

IC50 for C[C@]1(C#N)CCOc2ncc(C(=O)NCc3cc4nc(-c5cncc(C6CC6)n5)ccc4cn3)cc21 [Compound 253] is 500 to 1000 nM

IC50 for C[C@@]1(C#N)COCc2ccc(C(=O)NCc3cc4nc(N5CCN(C6CCC6)C5=O)ccc4cn3)cc21 [Compound 313] is 500 to 1000 nM

###

tested_system: BRM (Homo sapiens, UniProt P51531)
Sequence (P51531 whole entry): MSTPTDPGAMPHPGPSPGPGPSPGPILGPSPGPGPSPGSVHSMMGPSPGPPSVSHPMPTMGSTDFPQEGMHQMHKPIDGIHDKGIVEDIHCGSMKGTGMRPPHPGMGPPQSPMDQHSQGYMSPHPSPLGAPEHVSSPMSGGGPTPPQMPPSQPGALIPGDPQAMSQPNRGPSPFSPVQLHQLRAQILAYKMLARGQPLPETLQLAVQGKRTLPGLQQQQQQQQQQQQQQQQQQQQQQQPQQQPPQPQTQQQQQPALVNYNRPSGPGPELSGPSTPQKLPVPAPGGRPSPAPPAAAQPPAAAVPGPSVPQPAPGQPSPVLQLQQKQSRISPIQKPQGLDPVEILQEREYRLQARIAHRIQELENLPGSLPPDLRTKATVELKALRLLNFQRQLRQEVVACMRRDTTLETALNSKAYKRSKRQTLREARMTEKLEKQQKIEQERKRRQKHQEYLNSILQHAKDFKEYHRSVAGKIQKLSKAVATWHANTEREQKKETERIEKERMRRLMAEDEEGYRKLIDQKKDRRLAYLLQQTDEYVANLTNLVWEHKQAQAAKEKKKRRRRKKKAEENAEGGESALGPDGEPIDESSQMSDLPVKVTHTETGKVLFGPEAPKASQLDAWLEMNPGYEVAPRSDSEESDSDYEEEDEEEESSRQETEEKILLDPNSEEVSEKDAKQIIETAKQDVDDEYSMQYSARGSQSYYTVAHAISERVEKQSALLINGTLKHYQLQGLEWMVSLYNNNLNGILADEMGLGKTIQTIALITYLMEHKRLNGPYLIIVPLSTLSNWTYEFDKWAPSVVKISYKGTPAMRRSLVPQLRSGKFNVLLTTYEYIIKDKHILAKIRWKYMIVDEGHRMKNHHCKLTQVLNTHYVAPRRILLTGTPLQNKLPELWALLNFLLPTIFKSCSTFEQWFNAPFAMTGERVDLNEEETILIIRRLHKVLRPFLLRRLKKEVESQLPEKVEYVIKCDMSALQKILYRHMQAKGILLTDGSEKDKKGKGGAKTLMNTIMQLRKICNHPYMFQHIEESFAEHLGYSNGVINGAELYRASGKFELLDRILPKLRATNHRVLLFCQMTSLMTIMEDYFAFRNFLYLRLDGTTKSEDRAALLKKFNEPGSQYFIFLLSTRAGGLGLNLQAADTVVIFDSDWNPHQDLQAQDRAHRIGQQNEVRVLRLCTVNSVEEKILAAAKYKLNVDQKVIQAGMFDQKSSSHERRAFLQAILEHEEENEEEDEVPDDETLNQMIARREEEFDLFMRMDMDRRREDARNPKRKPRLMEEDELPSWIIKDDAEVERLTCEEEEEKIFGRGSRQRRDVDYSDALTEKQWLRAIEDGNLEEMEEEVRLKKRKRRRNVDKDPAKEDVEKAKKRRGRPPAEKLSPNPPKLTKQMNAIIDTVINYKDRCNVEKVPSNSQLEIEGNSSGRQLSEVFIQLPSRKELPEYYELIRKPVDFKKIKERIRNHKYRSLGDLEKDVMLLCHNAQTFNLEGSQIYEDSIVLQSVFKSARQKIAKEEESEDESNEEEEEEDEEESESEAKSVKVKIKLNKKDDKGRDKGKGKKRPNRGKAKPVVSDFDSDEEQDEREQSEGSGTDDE
test_name: ATPase catalytic activity assay (ADP-Glo), BRM
particulars: BRM ATPase: IC50 (uM), 30 nM BRM, 400 μM ATP
readout_kind: IC50

[[record]]
molecule = "C[C@@]1(C#N)COCc2ccc(C(=O)NCc3cc4nc(-c5ccccc5C(F)F)ccc4cn3)cc21 [Compound 521]"
result = "0.1 to 0.5 µM"

[[record]]
molecule = "CNC(=O)c1ccc(-c2ccc3cnc(CNC(=O)c4ccc5c(c4)[C@](C)(F)COC5)cc3n2)cn1 [Compound 260]"
result = "0.1 to 0.5 µM"

[[record]]
molecule = "COCCN1CCC(c2cccc(-c3ccc4cnc(CNC(=O)c5ccc6c(c5)[C@](C)(C#N)COC6)cc4n3)n2)CC1 [Compound 128]"
result = "0.1 to 0.5 µM"


IC50 for Cc1cc2c(-c3ccc4cnc(CNC(=O)c5ccc6c(c5)[C@](C)(C#N)COC6)cc4n3)ccc(F)c2n1C [Compound 129] is < 0.1 µM

IC50 for C[C@@]1(C#N)COCc2ccc(C(=O)NCc3cc4nc(-c5cnn6c5OCCC6)ccc4cn3)cc21 [Compound 405] is 0.1 to 0.5 µM

IC50 for CN1Cc2cc(-c3ccc4cnc(CNC(=O)c5ccc6c(c5)[C@](C)(C#N)COC6)cc4n3)ccc2C1=O [Compound 495] is < 0.1 µM

IC50 for COc1c(F)cc(F)cc1-c1ccc2cnc(CNC(=O)c3ccc4c(c3)[C@](C)(C#N)COC4)cc2n1 [Compound 515] is 0.1 to 0.5 µM

IC50 for C[C@@]1(C#N)COCc2ccc(C(=O)NCc3cc4nc(-c5ccnc(N6CC[C@@H](F)C6)n5)ccc4cn3)cc21 [Compound 306] is < 0.1 µM

IC50 for C[C@@]1(F)COCc2ccc(C(=O)NCc3cc4nc(-c5ccccc5)ccc4nn3)cc21 [Compound 277] is 0.1 to 0.5 µM

###

tested_system: BRM (Homo sapiens, UniProt P51531)
test_name: ATPase catalytic activity assay (ADP-Glo), BRM
particulars: BRM ATPase: IC50 (uM), 30 nM BRM, 400 μM ATP
Measured IC50 by item

Sample records with IC50:
[[record]]
molecule = "C[C@@]1(C#N)COCc2ccc(C(=O)NCc3cc4nc(-c5ccccc5OCCO)ccc4cn3)cc21 [Compound 431]"
tested_system = "BRM (Homo sapiens, UniProt P51531)"
result = "0.1 to 0.5 µM"

[[record]]
molecule = "C[C@@]1(C#N)COCc2ccc(C(=O)NCc3cc4nc(N5CCCCC5)ccc4cn3)cc21 [Compound 103]"
tested_system = "BRM (Homo sapiens, UniProt P51531)"
result = "0.1 to 0.5 µM"

[[record]]
molecule = "COc1ncccc1-c1ccc2nnc(CNC(=O)c3ccc4c(c3)[C@](C)(C#N)COC4)cc2c1 [Compound 357]"
tested_system = "BRM (Homo sapiens, UniProt P51531)"
result = "< 0.1 µM"


IC50 for C[C@@]1(C#N)COCc2ccc(C(=O)NCc3cc4nc(-c5ccncc5)sc4cn3)cc21 [Compound 438] is 0.1 to 0.5 µM

IC50 for C[C@@]1(C#N)COCc2ccc(C(=O)NCc3cc4nc(-c5ccc(C(F)F)nc5)ccc4cn3)cc21 [Compound 478] is 0.1 to 0.5 µM

###

Measured pIC50 by item
tested_system: BRG-1 (Homo sapiens)
test_name: ATPase catalytic activity assay (ADP-Glo), BRG-1
pIC50: −log10 of the molar value.

Sample records with pIC50:
[[record]]
compound = "C[C@@]1(C#N)COCc2ccc(C(=O)NCc3cc4nc(-c5ccccn5)sc4cn3)cc21"
tested_system = "BRG-1 (Homo sapiens)"
readout_kind = "pIC50"
result = "< 6.00"

[[record]]
compound = "C[C@@]1(F)COCc2ncc(C(=O)NCc3cc4nc(-c5ccnc(N6CCC6)c5F)cnc4cn3)cc21"
tested_system = "BRG-1 (Homo sapiens)"
readout_kind = "pIC50"
result = "6.30 to 7.00"

[[record]]
compound = "C[C@@]1(C#N)COCc2ncc(C(=O)NCc3cc4nc(-c5cccc(C6CC6)n5)ccc4cn3)cc21"
tested_system = "BRG-1 (Homo sapiens)"
readout_kind = "pIC50"
result = "6.30 to 7.00"

[[record]]
compound = "C[C@@]1(C#N)COCc2ccc(C(=O)NCc3cc4nc(-c5cccnc5)sc4cn3)cc21"
tested_system = "BRG-1 (Homo sapiens)"
readout_kind = "pIC50"
result = "< 6.00"

[[record]]
compound = "COc1cncc(-c2ccc3cnc(CNC(=O)c4ccc5c(c4)[C@](C)(C#N)COC5)cc3n2)c1"
tested_system = "BRG-1 (Homo sapiens)"
readout_kind = "pIC50"
result = "6.00 to 6.30"

[[record]]
compound = "C[C@@]1(C#N)COCc2ccc(C(=O)NCc3cc(OCc4cc(F)c5c(c4)CCO5)ccn3)cc21"
tested_system = "BRG-1 (Homo sapiens)"
readout_kind = "pIC50"
result = "6.00 to 6.30"


Proceed to the following item.
The observed pIC50 for C[C@@]1(C#N)CCOc2ccc(C(=O)NCc3cc4nc(-c5ccccc5)sc4cn3)cc21 when tested with BRG-1 (Homo sapiens) stands at < 6.00

###

tested_system: BRM (Homo sapiens, UniProt P51531)
test_name: ATPase catalytic activity assay (ADP-Glo), BRM
particulars: 30 nM BRM, 400 μM ATP
Measured BRM Max % Inhibition by item
Please give the number followed by its unit.

[[record]]
compound = "C[C@@]1(C#N)COCc2ccc(C(=O)NCc3cc4nc(-c5cccc(C6(O)COC6)c5)ccc4cn3)cc21 [Compound 479]"
readout_kind = "BRM Max % Inhibition"
result = "96%"

[[record]]
compound = "O=C(NCc1cc2nc(-c3cncc(C4CC4)n3)ccc2cn1)c1cnc2c(c1)[C@](F)(C(F)F)COC2 [Compound 228]"
readout_kind = "BRM Max % Inhibition"
result = "100%"

[[record]]
compound = "C[C@@]1(C#N)COCc2ncc(C(=O)NCc3cc4nc(-c5cccc(C6CC6)n5)ccc4nn3)cc21 [Compound 189]"
readout_kind = "BRM Max % Inhibition"
result = "99%"


BRM Max % Inhibition for COc1nn([C@H]2C[C@H](F)C2)cc1-c1ccc2cnc(CNC(=O)c3ccc4c(c3)[C@](C)(C#N)COC4)cc2n1 [Compound 185] is 99%

BRM Max % Inhibition for C[C@@H](O)c1cccc(-c2ccc3cnc(CNC(=O)c4cnc5c(c4)[C@](C)(F)COC5)cc3n2)n1 [Compound 212] is 89%

BRM Max % Inhibition for C[C@@]1(C#N)COCc2ccc(C(=O)NCc3cc(C#Cc4ccccc4)ccn3)cc21 [Compound 1] is 90%

BRM Max % Inhibition for C[C@@]1(C#N)COCc2ccc(C(=O)NCc3cc4nc(-c5cncc(C6CC6)n5)ccc4cn3)cc21 [Compound 406] is 100%

BRM Max % Inhibition for COc1nn(C(F)F)cc1-c1ccc2cnc(CNC(=O)c3ccc4c(c3)[C@](C)(C#N)COC4)cc2n1 [Compound 193] is 99%

BRM Max % Inhibition for CN(C)c1cccc(-c2ccc3nnc(CNC(=O)c4ccc5c(c4)[C@](C)(F)COC5)cc3n2)n1 [Compound 238] is 100%
